For each entry below, report its concentration at 6 h value.
- assay_explanation: Blood level screening after oral dose
- Format: in vivo, Sprague-Dawley rats
- particulars: male, Sprague-Dawley, plasma; rat, oral gavage 10 mg/kg, 6 hr; read-out: Plasma Levels (μM) 6 hr
# output: bare number, implied unit µM

Returns the measured concentration at 6 h for the input compound. Input: Cc1cccc(Cc2nnc(C(=O)C(NC(=O)CN3C(=O)NC(c4ccccc4)C3=O)C(C)C)o2)c1 (stereo not shown)
0

Returns the measured concentration at 6 h for the input compound. Input: Cc1cccc(Cc2nnc(C(=O)C(NC(=O)CN3C(=O)C(N)N=C(c4ccc(Cl)cc4)c4ccccc43)C(C)C)o2)c1 (stereo not shown)
1.96

Returns the measured concentration at 6 h for the input compound. Input: Cc1cccc(Cc2nnc(C(=O)[C@@H](NC(=O)CN3C(=O)NC4(Cc5ccccc5C4)C3=O)C(C)C)o2)c1
0.163

Returns the measured concentration at 6 h for the input compound. Input: Cc1cccc(Cc2nnc(C(=O)[C@@H](NC(=O)[C@@H]3CCCN3C(=O)[C@@H](NC(=O)OCc3ccccc3)C(C)C)C(C)C)o2)c1
0.061

###

- tgt: human neutrophil elastase (HNE) (Homo sapiens)
- Sequence (P08246 30-267): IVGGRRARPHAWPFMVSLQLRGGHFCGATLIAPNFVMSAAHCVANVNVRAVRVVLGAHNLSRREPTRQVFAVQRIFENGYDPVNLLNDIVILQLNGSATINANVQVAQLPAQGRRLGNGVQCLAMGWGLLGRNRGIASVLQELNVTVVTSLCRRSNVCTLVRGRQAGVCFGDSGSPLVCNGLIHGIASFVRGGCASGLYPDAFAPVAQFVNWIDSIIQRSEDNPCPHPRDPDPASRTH
- assay_explanation: HNE Ki of CE compounds, tested as described in WO 96/16080
- Format: biochemical
- particulars: read-out: HNE Ki
observable: pKi
Would you please state pKi, meaning minus log10 of the concentration in mol/L, as a bare number?

API: value(readout=pKi, system=human neutrophil elastase (HNE) (Homo sapiens)) for record Cc1cc(C)cc(Cc2nc(C(=O)[C@@H](NC(=O)[C@@H]3CCCN3C(=O)[C@@H](NC(=O)OCc3ccccc3)C(C)C)C(C)C)no2)c1
9.43

API: value(readout=pKi, system=human neutrophil elastase (HNE) (Homo sapiens)) for record CC(C)[C@H](NC(=O)CN1C(=O)NC(=Cc2cccnc2)C1=O)C(=O)c1noc(Cc2cccc(C(F)(F)F)c2)n1
7.10

API: value(readout=pKi, system=human neutrophil elastase (HNE) (Homo sapiens)) for record CC1=NC(N)C(=O)N(CC(=O)NC(C(=O)c2nnc(Cc3cccc(C)c3)o2)C(C)C)c2ccccc21 (stereo not drawn)
7.99

API: value(readout=pKi, system=human neutrophil elastase (HNE) (Homo sapiens)) for record Cc1cccc(Cc2nnc(C(=O)[C@@H](NC(=O)CN3C(=O)CN(Cc4ccc5c(c4)OCCO5)C(=O)[C@H]3Cc3ccccc3)C(C)C)o2)c1
8.32

API: value(readout=pKi, system=human neutrophil elastase (HNE) (Homo sapiens)) for record CC(C)[C@H](NC(=O)[C@@H]1CCCN1C(=O)[C@@H](NC(=O)OCc1ccccc1)C(C)C)C(=O)c1nnc(Cc2ccc3c(c2)OCO3)o1
10.80

API: value(readout=pKi, system=human neutrophil elastase (HNE) (Homo sapiens)) for record Cc1cccc(Cc2nnc(C(=O)[C@@H](NC(=O)CN3C(=O)N[C@@H](CC(C)C)C3=O)C(C)C)o2)c1
7.40

###

- tgt: human neutrophil elastase (HNE) (Homo sapiens)
- assay_explanation: HNE Ki of CE compounds, tested as described in WO 96/16080
- Assay type: biochemical
- particulars: read-out: HNE Ki
# strict inequality: Ki < 10 nM yields y, everything else yields n

Dear colleague, could you confirm whether Ki of Cc1cccc(Cc2nnc(C(=O)[C@@H](NC(=O)Cn3c(-c4cccnc4)ncc(N)c3=O)C(C)C)o2)c1 falls below 10 nM? Thanks.
y

Dear colleague, could you confirm whether Ki of Cc1cccc(Cc2nnc(C(=O)[C@@H](NC(=O)Cn3c(-c4ccc(F)cc4)ncc(NC(=O)OCc4ccccc4)c3=O)C(C)C)o2)c1 falls below 10 nM? Thanks.
y

Dear colleague, could you confirm whether Ki of CC(C)[C@H](NC(=O)[C@@H]1CCCN1C(=O)[C@@H](NC(=O)OCc1ccncc1)C(C)C)C(=O)c1noc(Cc2cccc(C(F)(F)F)c2)n1 falls below 10 nM? Thanks.
y

Dear colleague, could you confirm whether Ki of CC(C)[C@H](NC(=O)CN1CCCC(NC(=O)OCc2ccccc2)C1=O)C(=O)c1noc(Cc2cccc(C(F)(F)F)c2)n1 (stereo partly drawn) falls below 10 nM? Thanks.
n

Dear colleague, could you confirm whether Ki of Cc1cccc(Cc2nnc(C(=O)[C@@H](NC(=O)CN3C(=O)NC4(Cc5ccccc5C4)C3=O)C(C)C)o2)c1 falls below 10 nM? Thanks.
n

Dear colleague, could you confirm whether Ki of Cc1cccc(Cc2nnc(C(=O)[C@@H](NC(=O)Cn3c(=O)c(NC(=O)OCc4ccccc4)cc4ccc(N5CCCCC5)cc43)C(C)C)o2)c1 falls below 10 nM? Thanks.
n
